- Tested on: HCT-15 colon
- test_protocol: NCI tumour cell line growth inhibition, 48 h
observed_property: TGI

COc1cc(/C=C/C(=O)/C=C/c2ccc(-n3ccnc3)cc2)ccc1O :: 6.89 µM
O=C(Cc1csc2nc(-c3ccc(Br)cc3)cn12)N/N=C/c1ccccc1O :: 17.3 µM
C=C(CCC(=O)N(CCc1c[nH]c2ccccc12)C(=O)c1ccccc1CSCC)C(=O)OC :: > 100 µM
CC(C)(C)C(=O)C(N)C(=O)C(C)(C)C :: > 100 µM
CN(C)CCCNC(=O)N/N=C/c1ccccn1 :: > 10 µM
Fc1cccc(C2ON=C(c3ccccc3)N2C23CC4CC(CC(C4)C2)C3)c1 (stereo unspecified) :: > 10 µM
Cc1ccccc1NC(=O)C(=O)CC(=O)c1sc(-n2nc(-c3ccccc3)cc2-c2ccccc2)nc1C :: > 100 µM
CN=C1C=C(/N=C2/C=C(N/C(=C\C#N)C(C)(C)O)OC2(C)C)OC1(C)C :: > 100 µM
O=C(/C=C/c1ccccn1)c1ccccc1 :: 12.9 µM
CC(C)(C)OC(=O)CC(S(=O)(=O)c1ccccc1)S(=O)(=O)c1ccccc1 :: 3.71 µM

Would you kindly look at the next entry?
// query // map Clc1ccc(-c2nn3c(COc4ccc(OCc5nnc6sc(-c7ccc(Cl)cc7)nn56)c(Cl)c4)nnc3s2)cc1 to recorded TGI (system: HCT-15 colon)
// result > 100 µM
